// reported self-cleavage for each item listed
B1: CPEB3 Ribozyme (parent)
chain: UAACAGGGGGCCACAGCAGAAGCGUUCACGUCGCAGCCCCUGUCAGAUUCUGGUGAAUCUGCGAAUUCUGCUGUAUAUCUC

# Variants of: B1
# PROTOCOL_DESCRIPTION: self-cleavage, relative activity (ratio to wild type); higher = more cleavage; in vitro, sequencing
PROPERTY: self-cleavage

1) U51C U69G: 0.56
2) U26A G61A: 0.73
3) C27U U31C: 0.46
4) A21G U69G: 0.33
5) A45C C68U: 0.28
6) C62U: 0.2
7) U43A C44U: 1.11
8) A35U C71U: 0.37
9) U1A A5G: 0.68
10) A13U A64G: 1.09
11) U41G U58G: 0.16
12) A2G: 0.7
13) G24U U51A: 0.1
14) A5G A65G: 0.39
15) U1C A2C: 0.94
16) U1G C23U: 0.49
17) G9U G36C: 0.07
18) C59A A64G: 0.2
19) G22C A75G: 0.13
20) G24A U43C: 0.32
21) C40U A47U: 0.32
22) A65G U74A: 0.86
23) A28G C50G: 0.29
24) A18U A56C: 0.21
25) U26G U76A: 0.32
26) C14A G73U: 1.26
27) A21C A64C: 0.17
28) U26C G73U: 1
29) U49A A77G: 0.46
30) C37U U74A: 1.17
31) G10C A18G: 0.13
32) A3U A13G: 0.89
33) G36C U69C: 0.11
34) A28U U49C: 0.31
35) G63A A77G: 0.74
36) A18U C29A: 0.19
37) A28C U78C: 0.46
38) G55A U80C: 1.09
39) C38G U80A: 0.26
40) G7U C79A: 0.28
41) C17G A57G: 0.51
42) C32A G52C: 0.1
43) G22A U48A: 0.07
44) U41A: 0.3
45) U43A U80A: 1.22
46) A2C G52A: 1.02

Data provenance is the RNAGym collection of RNA variant scans (doi:10.1093/nar/gkz1192).
